assay: Cytotoxicity against mouse J774 cells; type: cell-based; conditions: read-out: ID50 (the source's name)
reportedProperty: CC50 (µM)
One number for each entry, in µM.

- molecule: "CC1(Cc2ccccc2)[N+]([O-])=c2ccccc2=[N+]1[O-]"
  result: 302
- molecule: "Cc1ccc2c(c1)=[N+]([O-])C1(CCCC1)[N+]=2[O-]"
  result: 63
- molecule: "CC1(Cc2ccc([N+](=O)[O-])cc2)[N+]([O-])=c2ccccc2=[N+]1[O-]"
  result: 122

# return CC50 for each item in the list
1. CCCCCCCCCCCCCCCCOP(=O)([O-])OCC[N+](C)(C)C
2. CC1(C)[N+]([O-])=c2ccc(Cl)cc2=[N+]1[O-]
3. [O-][N+]1=c2cc(Cl)c(Cl)cc2=[N+]([O-])C12CCCC2
4. CCCCCC1(C)[N+]([O-])=c2ccccc2=[N+]1[O-]
5. [O-][N+]1=c2ccc(/C=N/O)cc2=[N+]([O-])C12CCCC2
6. CC1CS(=O)(=O)CCN1/N=C/c1ccc([N+](=O)[O-])o1 (stereo not drawn)
7. CC1(C)[N+]([O-])=c2ccc(/C=N/O)cc2=[N+]1[O-]

1: 136; 2: 38; 3: 39; 4: 233; 5: 130; 6: 346; 7: 77

# return CC50 for each item in the list
1. [O-][N+]1=c2ccc(Br)cc2=[N+]([O-])C12CCCC2
2. COc1ccc2c(c1)=[N+]([O-])C1(CCCC1)[N+]=2[O-]
3. CC1(C)[N+]([O-])=c2ccc(/C=C/c3ccc4c(c3)OCO4)cc2=[N+]1[O-]
4. CC1(C)[N+]([O-])=c2ccc(/C=C/c3ccc(Cl)cc3)cc2=[N+]1[O-]
5. CC1(C)[N+]([O-])=c2cc(Cl)c(Cl)cc2=[N+]1[O-]

[100, 100, 58, 52, 100]

Value of CC50 reported for the molecule "CC1(Cc2ccc(Cl)cc2)[N+]([O-])=c2ccccc2=[N+]1[O-]" is 55

====

tested on: Trypanosoma cruzi; assay: Antitrypanosomal activity against Trypanosoma cruzi CL Brener epimastigotes after 5 days by MTT assay; format: functional; details: 120 h, read-out: ID50
Field: IC50. Provide a value for each of the molecules that follow.
Numbers only, in µM.

- molecule: "CC1(C)[N+]([O-])=c2ccc(/C=C/c3ccccc3)cc2=[N+]1[O-]"
  result: 8.5

# context switch: different molecule, same IC50
Value of IC50 reported for the molecule CC1CS(=O)(=O)CCN1/N=C/c1ccc([N+](=O)[O-])o1 (stereo not drawn) is 4.9

====

tested on: J774; experiment: Cytotoxicity against mouse J774 cells at 100 uM relative to 5-((hydroxyimino)methyl)-2,2-dimethyl-2H-benzo[d]imidazole 1,3-dioxide; assay type: cell-based; conditions: j774, 100 µM
reportedProperty: Activity
Phrase the answer as number then unit, nothing more needed.

Worked examples, 8 compounds total:
- smilesInput: "CC1(C)[N+]([O-])=c2cc(Cl)c(Cl)cc2=[N+]1[O-]"
  result: "0.87%"
- smilesInput: "COc1ccc2c(c1)=[N+]([O-])C1(CCCC1)[N+]=2[O-]"
  result: "0.89%"
- smilesInput: "Cc1ccc2c(c1)=[N+]([O-])C1(CCCC1)[N+]=2[O-]"
  result: "1.22%"
- smilesInput: "CC1(Cc2ccc(Cl)cc2)[N+]([O-])=c2ccccc2=[N+]1[O-]"
  result: "1.42%"
- smilesInput: "CC1(Cc2ccccc2)[N+]([O-])=c2ccccc2=[N+]1[O-]"
  result: "0.46%"
- smilesInput: "CC1(C)[N+]([O-])=c2ccc(/C=C/c3ccc4c(c3)OCO4)cc2=[N+]1[O-]"
  result: "1.37%"
- smilesInput: "[O-][N+]1=c2cc(Cl)c(Cl)cc2=[N+]([O-])C12CCCC2"
  result: "1.65%"
- smilesInput: "COc1ccc(CC2(C)[N+]([O-])=c3ccccc3=[N+]2[O-])cc1"
  result: "0.32%"

# return Activity for each item in the list
1. CC1(C)[N+]([O-])=c2ccc(Cl)cc2=[N+]1[O-]
2. [O-][N+]1=c2ccc(Br)cc2=[N+]([O-])C12CCCC2
3. CC1(C)[N+]([O-])=c2ccc(/C=C/c3ccc(Cl)cc3)cc2=[N+]1[O-]

1. 1.74%
2. 0.82%
3. 1.48%

# return Activity for each item in the list
1. CCCCCC1(C)[N+]([O-])=c2ccccc2=[N+]1[O-]
2. CC1(Cc2ccc([N+](=O)[O-])cc2)[N+]([O-])=c2ccccc2=[N+]1[O-]
3. [O-][N+]1=c2ccc(/C=N/O)cc2=[N+]([O-])C12CCCC2
4. [O-][N+]1=c2ccccc2=[N+]([O-])C12CCCC2

0.01%
0.47%
0.82%
0.75%
